The measured values listed here are drawn from the COVID Moonshot data (paper PMC11187573).

- Test Target: UniProt:P0DTD1
- Conditions: 50.0 µM
Readings of inhibition for the listed molecules
Enter your answer as a number in %; do not include the unit.

| Molecule | Test Target | Observed Measurement |
| --- | --- | --- |
| Cc1cccc(NC(=O)C(C#N)C(=O)C2CCC2)c1 (stereo unspecified) | UniProt:P0DTD1 | 1.6 |
| C=CC(=O)N(C(C)COc1cccc(F)c1)C(C(=O)NC(C)(C)C)c1cccnc1 (stereo unspecified) | UniProt:P0DTD1 | -5.54 |
| O=C(Cn1cccn1)N1CCN(S(=O)(=O)c2cccc(F)c2)CC1 | UniProt:P0DTD1 | 1 |
| Cn1cnnc1NC(=O)Cc1cccc(Cl)c1F | UniProt:P0DTD1 | -1.13 |
| O=C(CCl)N1CCN(C(c2ccccc2)c2ccccc2)CC1 | UniProt:P0DTD1 | 108 |
| Cc1ccnn1CC(=O)NCC(NC(=O)C(C)C#N)c1ccccc1 (stereo unspecified) | UniProt:P0DTD1 | -6.86 |
| COC(=O)c1c(C)nn(C(=O)c2cccs2)c1-c1snnc1C | UniProt:P0DTD1 | 77 |
| Nc1nnnn1-c1cccc(C(=O)Nc2c(-c3cccnc3)nc3ccccn23)c1 | UniProt:P0DTD1 | 2.69 |
| COc1ccc(NC(=O)c2ccc(C(=N)N(C)C)cc2)c(C(=O)Nc2ccc(Cl)cn2)c1 | UniProt:P0DTD1 | -3.35 |
| Cc1nnc(CNC(=O)C2CCOc3ccc(Cl)cc32)n1C1CC1 (stereo unspecified) | UniProt:P0DTD1 | 0.282 |

Proceed to the following item.
Request body: readout inhibition, system UniProt:P0DTD1, query "O=C(CCl)N1CCN(Cc2cccc(CNC(=O)N3CCOCC3)c2)CC1" . Return the value. 32.4
